Molecular target: Caspase-7 (Homo sapiens)
Sequence (P55210 whole entry): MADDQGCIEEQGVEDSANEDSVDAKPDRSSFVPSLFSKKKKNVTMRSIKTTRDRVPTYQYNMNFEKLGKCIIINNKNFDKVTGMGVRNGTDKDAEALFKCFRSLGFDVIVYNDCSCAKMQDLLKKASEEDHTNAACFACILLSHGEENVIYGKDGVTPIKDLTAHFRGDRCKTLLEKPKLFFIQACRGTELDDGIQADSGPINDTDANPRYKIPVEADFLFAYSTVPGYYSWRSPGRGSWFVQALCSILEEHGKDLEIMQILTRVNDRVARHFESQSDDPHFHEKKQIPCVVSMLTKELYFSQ
measure: pIC50
Bear in mind: pIC50 is minus log10 of a mol/L concentration; give just that figure.

Answered examples (5):
- CN1C(=O)C(=O)c2cc(S(=O)(=O)N3CCC[C@H]3COc3cccnc3)ccc21: 7.02
- CSc1ccc(CN2C(=O)C(=O)c3cc(S(=O)(=O)N4CCC[C@H]4COc4cccnc4)ccc32)cc1: 7.63
- O=C1C(=O)N(Cc2ccc(F)cc2)c2ccc(S(=O)(=O)N3CCC[C@H]3COc3cccnc3)cc21: 7.82
- COc1ccc(CN2C(=O)C(=O)c3cc(S(=O)(=O)N4CCC[C@H]4COc4ccccc4)ccc32)cc1: 7.66
- O=C1C(=O)N(Cc2ccccc2)c2ccc(S(=O)(=O)N3CCC[C@H]3COc3cccnc3)cc21: 7.85

Exercise: Quick one: pIC50 for "CC(=O)Oc1ccc(CN2C(=O)C(=O)c3cc(S(=O)(=O)N4CCC[C@H]4COc4ccccc4)ccc32)cc1" ?
Solution: 7.46

Exercise: Quick one: pIC50 for "CN1C(=O)C(=O)c2cc(S(=O)(=O)N3CCC[C@H]3COc3ccccc3)ccc21" ?
Solution: 6.51

====

Biological target: Caspase-1 (Homo sapiens, UniProt P29466)
Sequence (P29466 whole entry): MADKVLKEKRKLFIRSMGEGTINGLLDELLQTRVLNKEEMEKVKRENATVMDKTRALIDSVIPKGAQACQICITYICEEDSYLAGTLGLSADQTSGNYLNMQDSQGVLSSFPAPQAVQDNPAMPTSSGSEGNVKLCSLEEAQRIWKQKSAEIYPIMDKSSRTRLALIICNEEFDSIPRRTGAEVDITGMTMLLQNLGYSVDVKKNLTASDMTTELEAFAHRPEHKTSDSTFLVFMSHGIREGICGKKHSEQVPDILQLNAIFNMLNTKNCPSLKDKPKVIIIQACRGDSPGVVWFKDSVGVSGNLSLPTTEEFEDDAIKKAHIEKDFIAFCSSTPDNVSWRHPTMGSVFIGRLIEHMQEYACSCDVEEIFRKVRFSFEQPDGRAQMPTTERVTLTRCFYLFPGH
measure: IC50

* CN1C(=O)C(=O)c2cc(S(=O)(=O)N3CCC[C@H]3COc3cccnc3)ccc21 | > 10 µM
* CSc1ccc(CN2C(=O)C(=O)c3cc(S(=O)(=O)N4CC[C@H]4COc4ccccc4)ccc32)cc1 | > 50 µM
* O=C1C(=O)N(Cc2ccc(F)cc2)c2ccc(S(=O)(=O)N3CCC[C@H]3COc3cccnc3)cc21 | > 10 µM
* CN1C(=O)C(=O)c2cc(S(=O)(=O)N3CCC[C@H]3COc3ccccc3)ccc21 | > 20 µM
* O=C1C(=O)N(Cc2ccccc2)c2ccc(S(=O)(=O)N3CCC[C@H]3COc3cccnc3)cc21 | > 10 µM
* O=C1Nc2ccc(S(=O)(=O)N3CCC[C@H]3COc3ccncc3)cc2C1=O | > 5 µM
* COc1ccc(CN2C(=O)C(=O)c3cc(S(=O)(=O)N4CCC[C@H]4COc4cccnc4)ccc32)cc1 | > 10 µM

# context switch: different compound, same IC50
Exercise: Quick one: IC50 for "O=C1C(=O)N(Cc2ccnc(F)c2)c2ccc(S(=O)(=O)N3CCC[C@H]3COc3ccccc3)cc21" ?
Solution: > 50 µM
